Target: Escherichia coli aspartokinase III (AK III, lysC), wild type, SEQ ID NO: 1 (Escherichia coli)
Sequence (P08660 2-449): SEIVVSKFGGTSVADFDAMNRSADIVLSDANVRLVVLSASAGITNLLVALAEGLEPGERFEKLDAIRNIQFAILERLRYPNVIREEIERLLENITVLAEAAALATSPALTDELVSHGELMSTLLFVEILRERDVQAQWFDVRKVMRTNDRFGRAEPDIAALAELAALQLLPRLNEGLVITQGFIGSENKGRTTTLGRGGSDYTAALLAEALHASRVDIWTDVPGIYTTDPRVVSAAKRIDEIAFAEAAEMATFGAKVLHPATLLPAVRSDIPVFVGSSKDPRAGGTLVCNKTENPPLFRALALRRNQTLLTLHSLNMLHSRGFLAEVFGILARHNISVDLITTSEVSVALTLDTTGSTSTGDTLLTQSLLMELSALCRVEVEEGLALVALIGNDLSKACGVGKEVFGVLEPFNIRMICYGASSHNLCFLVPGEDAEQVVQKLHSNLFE
pIC50: −log10 of the molar value.
measurement.name: pIC50

Query block: Which pIC50 value is on record for NCCCC[C@H](N)C(=O)O ?
Result block: ~3.35
